# measured-target: acetylcholine receptor
# assay-protocol: SPR, peptide at 10 uM over immobilized acetylcholine receptor
Would you kindly list Binding affinity (RU) for each of these binders?
Answers are plain numbers, in RU.

I need Binding affinity (RU) for every entry listed below, if you could help.
1. RRVYRK [6mer-2-109]
2. RRLTKR [6mer-2-87]
3. KVVCKR [6mer-2-92]
4. KSVLRK [6mer-2-129]
5. RGVQKK [6mer-2-82]
6. RLICRK [6mer-2-101]

Result block:
144
142
131
139
124
154
